Tested on: Escherichia coli
Experiment: Antibacterial activity against Escherichia coli ATCC 8739 at 2 mg/ml after 24 hrs by agar-well diffusion technique
Type: functional
Settings: ATCC 8739, 24 h, read-out: DIZ
List of zone of inhibition at 2000 µg/mL values.
Express the result in mm but write the number alone.

Reference set (2 entries):
Cc1cc(-c2ccccc2)n2nc(-n3nc(C)cc3-c3ccccc3)cc2n1 ... 8
Cc1nn(-c2cc3nc(C)c4c(n3n2)CCC4)c2c1CCC2 ... 7

Now let's try a different one.
Input line: Tell me measured zone of inhibition at 2000 µg/mL for `Cc1cc(-c2ccc(Br)cc2)n2nc(-n3nc(C)cc3-c3ccc(Br)cc3)cc2n1` please.
Output line: 8
